test system: MtmGntK (Methylotuvimicrobium alcaliphilum, UniProt G4T089)
Construct: gene gntK; C-terminal His6, E. coli Rosetta (DE3), pET30; ~20 kDa, monomer
Sequence (G4T089 1-181): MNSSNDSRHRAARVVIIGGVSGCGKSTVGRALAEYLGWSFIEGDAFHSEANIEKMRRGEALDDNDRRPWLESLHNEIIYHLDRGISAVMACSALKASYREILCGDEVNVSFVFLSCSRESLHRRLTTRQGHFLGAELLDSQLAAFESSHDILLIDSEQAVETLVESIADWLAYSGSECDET
test name: biochemical
Design: recombinant gluconate kinase activity, coupled to 6-phosphogluconate dehydrogenase, NADPH at 340 nm, effect of added metabolite
measurement setup: 5 mM; read-out: % of control remaining
assay readout: remaining activity at 5000 µM (%)
One number for each entry, in %.

A selection of reference data follows.
[[record]]
molecule = "O=P(O)(O)O[C@H]1O[C@H](CO)[C@@H](O)[C@H](O)[C@H]1O [Glucose 1-Phosphate]"
test_system = "MtmGntK (Methylotuvimicrobium alcaliphilum, UniProt G4T089)"
numeric_readout = 96

[[record]]
molecule = "Nc1ncnc2c1ncn2[C@@H]1O[C@H](COP(=O)(O)OP(=O)(O)O)[C@@H](O)[C@H]1O"
test_system = "MtmGntK (Methylotuvimicrobium alcaliphilum, UniProt G4T089)"
numeric_readout = 71

[[record]]
molecule = "O=P(O)(O)OC[C@H]1OC(O)[C@H](O)[C@@H](O)[C@@H]1O (stereo partly shown) [glucose-6-phosphate]"
test_system = "MtmGntK (Methylotuvimicrobium alcaliphilum, UniProt G4T089)"
numeric_readout = 96


Let's switch to this molecule now.
Request: Lab request: please report remaining activity at 5000 µM under test system MtmGntK (Methylotuvimicrobium alcaliphilum, UniProt G4T089) for C=C(OP(=O)(O)O)C(=O)O [Phosphoenolpyruvate]
Result: 84

====

test system: MtmGDH (Methylotuvimicrobium alcaliphilum)
Construct: gene gdhI; full ORF, N-terminal His6 kept, E. coli Rosetta (DE3), pET28
Sequence (G4T0V2 1-271): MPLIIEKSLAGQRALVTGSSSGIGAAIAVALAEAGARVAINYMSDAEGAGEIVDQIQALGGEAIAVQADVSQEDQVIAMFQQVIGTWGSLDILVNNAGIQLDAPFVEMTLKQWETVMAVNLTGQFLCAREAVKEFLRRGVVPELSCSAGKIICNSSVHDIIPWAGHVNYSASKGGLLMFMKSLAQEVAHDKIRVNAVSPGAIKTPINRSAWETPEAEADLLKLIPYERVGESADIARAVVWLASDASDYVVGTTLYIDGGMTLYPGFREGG
test name: biochemical
measurement setup: 1 mM; read-out: % of control remaining
assay readout: remaining activity at 1000 µM (%)
Answers are plain numbers, in %.

[[record]]
compound = "Nc1ncnc2c1ncn2[C@@H]1O[C@H](COP(=O)(O)OP(=O)(O)OP(=O)(O)O)[C@@H](O)[C@H]1O"
assay_readout = "remaining activity at 1000 µM"
readout_unit = "%"
numeric_readout = 93

[[record]]
compound = "O=C(O)CC(O)(CC(=O)O)C(=O)O [Citrate]"
assay_readout = "remaining activity at 1000 µM"
readout_unit = "%"
numeric_readout = 119

[[record]]
compound = "O=C(O)CC(O)C(=O)O (stereo not shown) [Malate]"
assay_readout = "remaining activity at 1000 µM"
readout_unit = "%"
numeric_readout = 95


List reported remaining activity at 1000 µM for each of these compounds:
1. N[C@@H](CO)C(=O)O
2. O=C(O)CCC(=O)O [Succinate]
3. CC(=O)C(=O)O [Pyruvate]
4. Nc1ncnc2c1ncn2[C@@H]1O[C@H](COP(=O)(O)O)[C@@H](O)[C@H]1O
5. CC(O)C(=O)O (stereo not shown) [Lactate]
6. O=C(O)CC(=O)C(=O)O [Oxaloacetate]
7. Nc1ncnc2c1ncn2[C@@H]1O[C@H](COP(=O)(O)OP(=O)(O)O)[C@@H](O)[C@H]1O
8. C=C(OP(=O)(O)O)C(=O)O [Phosphoenolpyruvate]

Result:
108
99
96
109
116
107
87
94

Report remaining activity at 1000 µM for each item below.
1. O=C(O)C[C@H](C(=O)O)[C@@H](O)C(=O)O [isocitrate]
2. O=C(O)CCC(=O)C(=O)O [α-Ketoglutarate]

Result:
1: 140; 2: 104
